tested target: Poly [ADP-ribose] polymerase 1 (Homo sapiens, UniProt P09874)
Sequence (P09874 whole entry): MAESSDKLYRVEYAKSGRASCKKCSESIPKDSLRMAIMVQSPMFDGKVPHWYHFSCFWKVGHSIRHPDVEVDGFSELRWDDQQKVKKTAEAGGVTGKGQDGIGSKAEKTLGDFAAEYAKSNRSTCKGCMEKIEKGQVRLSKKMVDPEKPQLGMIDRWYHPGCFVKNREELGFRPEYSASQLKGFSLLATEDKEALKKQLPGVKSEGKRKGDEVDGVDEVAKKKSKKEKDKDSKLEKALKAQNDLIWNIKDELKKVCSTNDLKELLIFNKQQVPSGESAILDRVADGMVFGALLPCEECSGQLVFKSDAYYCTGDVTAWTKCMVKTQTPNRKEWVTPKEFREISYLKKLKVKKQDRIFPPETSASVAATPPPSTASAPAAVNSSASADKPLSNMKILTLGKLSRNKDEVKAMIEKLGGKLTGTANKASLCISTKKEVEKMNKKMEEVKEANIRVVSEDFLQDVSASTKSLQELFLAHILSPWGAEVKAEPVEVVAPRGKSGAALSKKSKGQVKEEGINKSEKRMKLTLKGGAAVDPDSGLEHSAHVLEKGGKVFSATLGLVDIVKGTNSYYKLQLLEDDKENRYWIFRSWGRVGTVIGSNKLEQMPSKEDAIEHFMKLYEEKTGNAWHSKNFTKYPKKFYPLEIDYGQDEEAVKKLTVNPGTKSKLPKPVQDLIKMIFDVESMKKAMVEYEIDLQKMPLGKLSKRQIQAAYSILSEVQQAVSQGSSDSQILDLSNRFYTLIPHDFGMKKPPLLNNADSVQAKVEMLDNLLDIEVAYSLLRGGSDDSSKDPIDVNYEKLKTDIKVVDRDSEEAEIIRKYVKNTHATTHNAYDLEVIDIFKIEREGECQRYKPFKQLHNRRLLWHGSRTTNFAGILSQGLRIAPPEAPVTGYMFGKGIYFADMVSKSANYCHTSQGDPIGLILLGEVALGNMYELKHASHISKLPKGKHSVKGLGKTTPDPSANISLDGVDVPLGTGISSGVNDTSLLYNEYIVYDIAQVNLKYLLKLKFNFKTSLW
method: Inhibition of PARP1 (unknown origin)
condition context: read-out: IC50
endpoint: IC50 (nM)
Report as a plain number; the unit nM is understood.

The examples below pair each entry with its known result.
compound	reported value
O=c1cc(-c2ccc(O)c(-c3c(O)cc(O)c4c(=O)cc(-c5ccc(O)cc5)oc34)c2)oc2cc(O)cc(O)c12 [AMENTOFLAVONE]	120
O=c1c(O)c(-c2ccc(O)c(-c3c(O)cc(O)c4c(=O)cc(-c5ccc(O)cc5)oc34)c2)oc2cc(OS(=O)(=O)O)cc(O)c12	510
O=c1c(O)c(-c2ccc(O)c(-c3c(O)cc(O)c4c(=O)cc(-c5ccc(OS(=O)(=O)O)cc5)oc34)c2)oc2cc(OS(=O)(=O)O)cc(O)c12	240

QUERY: Determine its reported IC50: `O=c1cc(-c2ccc(O)c(-c3c(O)cc(O)c4c(=O)cc(-c5ccc(OS(=O)(=O)O)cc5)oc34)c2)oc2cc(O)cc(O)c12`
RESULT: 170
